Assay: CYP3A inducer study: pharmacokinetics of naldemedine alone or with rifampin
Assay type: in vivo, human
Conditions: human, plasma, oral, 0.2 mg, λz, naldemedine 0.2 mg alone or with rifampin 600 mg QD; n = 14; mean (SD)
Assay Metric: k el (s⁻¹)

CC(C)(NC(=O)C1=C(O)[C@@H]2Oc3c(O)ccc4c3[C@@]23CCN(CC2CC2)[C@H](C4)[C@]3(O)C1)c1nc(-c2ccccc2)no1 | 1.67e-05

* * *

Assay type: in vivo, human
Settings: human, plasma, oral, 0.2 mg, λz, Cohort 2: naldemedine 0.2 mg alone or with fluconazole 200 mg; n = 14; mean (SD)
Assay Metric: k el

CC(C)(NC(=O)C1=C(O)[C@@H]2Oc3c(O)ccc4c3[C@@]23CCN(CC2CC2)[C@H](C4)[C@]3(O)C1)c1nc(-c2ccccc2)no1 [Naldemedine] | 1.95e-05 s⁻¹

* * *

Format: in vivo, human
Conditions: male, human, plasma, po, 0.4 mg
Assay Metric: half-life (min)

CC(C)(NC(=O)C1=C(O)[C@@H]2Oc3c(O)ccc4c3[C@@]23CCN(CC2CC2)[C@H](C4)[C@]3(O)C1)c1nc(-c2ccccc2)no1 [Naldemedine] | 642

* * *

Type: in vivo, human
Details: male, human, plasma, po, 0.4 mg
Assay Metric: AUC(0-inf) (ng·h/mL)

CC(C)(NC(=O)C1=C(O)[C@@H]2Oc3c(O)ccc4c3[C@@]23CCN(CC2CC2)[C@H](C4)[C@]3(O)C1)c1nc(-c2ccccc2)no1 [Naldemedine] | 39.5

* * *

Type: in vivo, human
Settings: male, human, plasma, po, 0.4 mg
Assay Metric: k el (s⁻¹)

CC(C)(NC(=O)C1=C(O)[C@@H]2Oc3c(O)ccc4c3[C@@]23CCN(CC2CC2)[C@H](C4)[C@]3(O)C1)c1nc(-c2ccccc2)no1 [Naldemedine] | 1.82e-05

* * *

Format: in vivo, human
Settings: human, plasma, oral, 0.2 mg, t1/2,z, Cohort 2: naldemedine 0.2 mg alone or with fluconazole 200 mg; n = 14; geometric mean (CV %)
Assay Metric: half-life (h)

CC(C)(NC(=O)C1=C(O)[C@@H]2Oc3c(O)ccc4c3[C@@]23CCN(CC2CC2)[C@H](C4)[C@]3(O)C1)c1nc(-c2ccccc2)no1 | 10.1

* * *

Format: in vivo, human
Details: human, plasma, oral, 0.2 mg, AUC0–last, Cohort 1: naldemedine 0.2 mg alone or with itraconazole 200 mg; n = 14; mean (SD)
Assay Metric: AUC(0-t) (ng·h/mL)

CC(C)(NC(=O)C1=C(O)[C@@H]2Oc3c(O)ccc4c3[C@@]23CCN(CC2CC2)[C@H](C4)[C@]3(O)C1)c1nc(-c2ccccc2)no1 [Naldemedine] | 28.1

* * *

Type: in vivo, human
Conditions: human, plasma, oral, 0.2 mg, AUC0–inf, Cohort 2: naldemedine 0.2 mg alone or with fluconazole 200 mg; n = 14; mean (SD)
Assay Metric: AUC(0-inf) (ng·h/mL)

CC(C)(NC(=O)C1=C(O)[C@@H]2Oc3c(O)ccc4c3[C@@]23CCN(CC2CC2)[C@H](C4)[C@]3(O)C1)c1nc(-c2ccccc2)no1 | 27.5

* * *

Assay type: in vivo, human
Details: human, plasma, oral, 0.2 mg, λz, Cohort 2: naldemedine 0.2 mg alone or with fluconazole 200 mg; n = 14; geometric mean (CV %)
Assay Metric: k el (s⁻¹)

CC(C)(NC(=O)C1=C(O)[C@@H]2Oc3c(O)ccc4c3[C@@]23CCN(CC2CC2)[C@H](C4)[C@]3(O)C1)c1nc(-c2ccccc2)no1 | 1.9e-05

* * *

Type: in vivo, human
Conditions: human, plasma, oral, 0.2 mg, AUC0–inf, Cohort 1: naldemedine 0.2 mg alone or with itraconazole 200 mg; n = 14; mean (SD)
Assay Metric: AUC(0-inf)

CC(C)(NC(=O)C1=C(O)[C@@H]2Oc3c(O)ccc4c3[C@@]23CCN(CC2CC2)[C@H](C4)[C@]3(O)C1)c1nc(-c2ccccc2)no1 [Naldemedine] | 28.3 ng·h/mL

* * *

Assay: CYP3A inducer study: pharmacokinetics of naldemedine alone or with rifampin
Type: in vivo, human
Details: human, plasma, oral, 0.2 mg, t1/2,z, naldemedine 0.2 mg alone or with rifampin 600 mg QD; n = 14; mean (SD)
Assay Metric: half-life (h)

CC(C)(NC(=O)C1=C(O)[C@@H]2Oc3c(O)ccc4c3[C@@]23CCN(CC2CC2)[C@H](C4)[C@]3(O)C1)c1nc(-c2ccccc2)no1 [Naldemedine] | 11.9

* * *

Assay type: in vivo, human
Settings: male, human, plasma, oral, 0.4 mg
Assay Metric: AUC(0-inf) (ng·h/mL)

CC(C)(NC(=O)C1=C(O)[C@@H]2Oc3c(O)ccc4c3[C@@]23CCN(CC2CC2)[C@H](C4)[C@]3(O)C1)c1nc(-c2ccccc2)no1 | 38.9
